These measurements were taken from patent US20080032921A1.

// values below are reported log10(IC50)
- system-under-test: HLA-DR DRB1*1302 (human)
- protocol-text: competition assay, purified HLA, inhibition of 125I-labelled reference peptide
Please keep in mind that the values are log10 of IC50 expressed in µM.

binder: VERILKEESDEALKM (modifications not checked) [Flu.NS1.68]
log10(IC50): 0.71

Param item = DILMRMSKMQLGSSS (modifications not checked) [Flu.NS2.87] ; retrieve measured log10(IC50).
-0.37

Param item = QKAMMDQVRESRNPG (modifications not checked) [Flu.NP.238] ; retrieve measured log10(IC50).
1.02

Param item = LILYDKEEIRRIWRQ (modifications not checked) [Flu.NP.111] ; retrieve measured log10(IC50).
0.49

Param item = VMRMGDLHSLQNRNG (modifications not checked) [Flu.NS2.125] ; retrieve measured log10(IC50).
0.14
